Recorded Relative ΔOD at Saturation (rating) by entry
assay: Relative ΔOD at Saturation Test; assay type: physicochemical; conditions: ΔOD at saturation (Band A)/ΔOD at saturation (Band B)×100

COMPOUND: COc1ccc(C2(c3ccc(N4CCOCC4)cc3)C=Cc3c4c(c5cc(OC)c(OC)cc5c3O2)-c2ccccc2C4c2ccccc2)cc1 (stereo not shown)
Relative ΔOD at Saturation (rating): 98
//
COMPOUND: CCC1(CC)c2cc(OC)c(OC)cc2-c2c1c1c(c3cc(OC)c(OC)cc23)OC(c2ccc(OC)cc2)(c2ccc(OC)cc2)C=C1
Relative ΔOD at Saturation (rating): 140
//
COMPOUND: COc1ccc(C2(c3ccc(N4CCOCC4)cc3)C=Cc3c4c(c5cc(OC)c(OC)cc5c3O2)-c2ccccc2C4(C)OC)cc1 (stereo not shown)
Relative ΔOD at Saturation (rating): 92
//
COMPOUND: COc1ccc(C2(c3ccc(N4CCOCC4)cc3)C=Cc3c4c(c5cc(OC)c(OC)cc5c3O2)-c2ccccc2C4(C)O)cc1 (stereo not shown)
Relative ΔOD at Saturation (rating): 97

* * *

assay: photochromic response of test squares on an optical bench (sensitivity, saturation optical density, bleach rate); type: physicochemical; details: Band A; UV exposure 15 minutes; 72° F. (22.2° C.); polymer test square
Reported ΔOD @ Saturation (Band A) values for the following compounds.

COMPOUND: COc1ccc(C2(c3ccc(OC)cc3)C=Cc3c4c(c5cc(OC)c(OC)cc5c3O2)-c2cc(OC)c(OC)cc2C4(C)C)cc1
ΔOD @ Saturation (Band A): 0.99
--
COMPOUND: COc1ccc(C2(c3ccc(OC)cc3)C=Cc3c4c(c5cc(OC)c(OC)cc5c3O2)-c2ccccc2C4c2ccccc2)cc1 (stereo not shown)
ΔOD @ Saturation (Band A): 0.66
--
COMPOUND: COc1ccc(C2(c3ccc(N4CCOCC4)cc3)C=Cc3c4c(c5cc(OC)c(OC)cc5c3O2)-c2ccccc2C4(C)OC)cc1 (stereo not shown)
ΔOD @ Saturation (Band A): 0.34
--
COMPOUND: CCC1(O)c2cc(OC)c(OC)cc2-c2c1c1c(c3cc(OC)c(OC)cc23)OC(c2ccc(OC)cc2)(c2ccc(OC)cc2)C=C1 (stereo not shown)
ΔOD @ Saturation (Band A): 0.62

* * *

experiment: lambda max (Vis) of activated photochromic test squares in a Varian Cary 3 uv-visible spectrophotometer; format: physicochemical; settings: Band A; activated form in test square

COMPOUND: COc1ccc(C2(c3ccc(N4CCOCC4)cc3)C=Cc3c4c(c5cc(OC)c(OC)cc5c3O2)-c2ccccc2C4(C)O)cc1 (stereo not drawn) [Example 19]
λ MAX Vis (Band A), nm: 481

COMPOUND: COc1ccc(C2(c3ccc(N4CCOCC4)cc3)C=Cc3c4c(c5cc(OC)c(OC)cc5c3O2)-c2ccccc2C4c2ccccc2)cc1 (stereo not drawn) [Example 8]
λ MAX Vis (Band A), nm: 484

COMPOUND: COc1ccc(C2(c3ccc(OC)cc3)C=Cc3c4c(c5cc(OC)c(OC)cc5c3O2)-c2cc(OC)c(OC)cc2C4(C)C)cc1 [Example 1]
λ MAX Vis (Band A), nm: 445

COMPOUND: COc1ccc(C2(c3ccc(OC)cc3)C=Cc3c4c(c5cc(OC)c(OC)cc5c3O2)-c2ccccc2C4(C)C)cc1 [Example 4]
λ MAX Vis (Band A), nm: 455

COMPOUND: CCC1(O)c2cc(OC)c(OC)cc2-c2c1c1c(c3cc(OC)c(OC)cc23)OC(c2ccc(OC)cc2)(c2ccc(OC)cc2)C=C1 (stereo not drawn) [Example 3]
λ MAX Vis (Band A), nm: 460

COMPOUND: COc1ccc(C2(c3ccc(N4CCOCC4)cc3)C=Cc3c4c(c5cc(OC)c(OC)cc5c3O2)-c2ccccc2C4(C)OC)cc1 (stereo not drawn) [Example 20]
λ MAX Vis (Band A), nm: 483

* * *

Quick reference for λ MAX Vis (Band B) among some molecules
experiment: lambda max (Vis) of activated photochromic test squares in a Varian Cary 3 uv-visible spectrophotometer; assay type: physicochemical; conditions: Band B; activated form in test square

MOLECULE: CCCCC1(O)c2cc(OC)c(OC)cc2-c2c1c1c(c3cc(OC)c(OC)cc23)OC(c2ccc(OC)cc2)(c2ccc(N3CCOCC3)cc2)C=C1 (centres unmarked) [Example 13]
λ MAX Vis (Band B): 634 nm

MOLECULE: COc1ccc(C2(c3ccc(N4CCOCC4)cc3)C=Cc3c4c(c5cc(OC)c(OC)cc5c3O2)-c2ccccc2C4c2ccccc2)cc1 (centres unmarked) [Example 8]
λ MAX Vis (Band B): 603 nm

MOLECULE: CCC1(O)c2ccccc2-c2c1c1c(c3cc(OC)c(OC)cc23)OC(c2ccccc2)(c2ccc(N3CCOCC3)cc2)C=C1 (centres unmarked) [Example 14]
λ MAX Vis (Band B): 600 nm

MOLECULE: CCC1(O)c2ccccc2-c2c1c1c(c3cc(OC)c(OC)cc23)OC(c2ccc(OC)cc2)(c2ccc(OC)cc2)C=C1 (centres unmarked) [Example 5]
λ MAX Vis (Band B): 584 nm

MOLECULE: COc1ccc(C2(c3ccc(N4CCOCC4)cc3)C=Cc3c4c(c5cc(OC)c(OC)cc5c3O2)-c2ccccc2C4(C)C)cc1 (centres unmarked) [Example 9]
λ MAX Vis (Band B): 597 nm

MOLECULE: COc1ccc(C2(c3ccc(OC)cc3)C=Cc3c4c(c5cc(OC)c(OC)cc5c3O2)-c2cc(OC)c(OC)cc2C4(C)C)cc1 [Example 1]
λ MAX Vis (Band B): 611 nm

MOLECULE: CCCCC1(O)c2ccccc2-c2c1c1c(c3cc(OC)c(OC)cc23)OC(c2ccc(OC)cc2)(c2ccc(OC)cc2)C=C1 (centres unmarked) [Example 15]
λ MAX Vis (Band B): 579 nm

MOLECULE: COc1ccc(C2(c3ccc(OC)cc3)C=Cc3c4c(c5cc(OC)c(OC)cc5c3O2)-c2ccccc2C4(C)C)cc1 [Example 4]
λ MAX Vis (Band B): 576 nm

MOLECULE: COc1ccc(C2(c3ccc(N4CCOCC4)cc3)C=Cc3c4c(c5cc(OC)c(OC)cc5c3O2)-c2ccccc2C4(C)O)cc1 (centres unmarked) [Example 19]
λ MAX Vis (Band B): 603 nm

MOLECULE: CCC1(O)c2cc(OC)ccc2-c2c1c1c(c3cc(OC)ccc23)OC(c2ccc(OC)cc2)(c2ccc(OC)cc2)C=C1 (centres unmarked) [Comp. Ex. 2, reference compound]
λ MAX Vis (Band B): 607 nm

MOLECULE: CCC1(OC)c2ccccc2-c2c1c1c(c3cc(OC)c(OC)cc23)OC(c2ccc(OC)cc2)(c2ccc(N3CCOCC3)cc2)C=C1 (centres unmarked) [Example 18]
λ MAX Vis (Band B): 604 nm

* * *

test: photochromic response of test squares on an optical bench (sensitivity, saturation optical density, bleach rate); assay type: physicochemical; conditions: Band B; first five (5) seconds of UV exposure, expressed per minute; 72° F. (22.2° C.); polymer test square
PROPERTY_LABEL: Sensitivity ΔOD/MIN (Band B)

COMPOUND: COc1ccc(C2(c3ccc(OC)cc3)C=Cc3c4c(c5c(OC)c(OC)c(OC)cc5c3O2)-c2ccccc2C4c2ccccc2)cc1 (centres unmarked) [Example 11]
RESULT: 0.25 ΔOD/MIN
//
COMPOUND: CCC1(O)c2cc(OC)c(OC)cc2-c2c1c1c(c3cc(OC)c(OC)cc23)OC(c2ccc(OC)cc2)(c2ccc(OC)cc2)C=C1 (centres unmarked) [Example 3]
RESULT: 0.24 ΔOD/MIN
//
COMPOUND: CCC1(O)c2ccccc2-c2c1c1c(c3ccccc23)OC(c2ccc(OC)cc2)(c2ccc(OC)cc2)C=C1 (centres unmarked) [Comp. Ex. 1, reference compound]
RESULT: 0.29 ΔOD/MIN
//
COMPOUND: COc1ccc(C2(c3ccc(OC)cc3)C=Cc3c4c(c5cc(OC)c(OC)cc5c3O2)-c2cc(OC)c(OC)cc2C4(C)C)cc1 [Example 1]
RESULT: 0.24 ΔOD/MIN
//
COMPOUND: CCC1(OC)c2ccccc2-c2c1c1c(c3cc(OC)c(OC)cc23)OC(c2ccc(OC)cc2)(c2ccc(N3CCOCC3)cc2)C=C1 (centres unmarked) [Example 18]
RESULT: 0.18 ΔOD/MIN
//
COMPOUND: CCCCC1(O)c2cc(OC)c(OC)cc2-c2c1c1c(c3cc(OC)c(OC)cc23)OC(c2ccc(OC)cc2)(c2ccc(N3CCOCC3)cc2)C=C1 (centres unmarked) [Example 13]
RESULT: 0.25 ΔOD/MIN
//
COMPOUND: CCCCC1(O)c2ccccc2-c2c1c1c(c3cc(OC)c(OC)cc23)OC(c2ccccc2)(c2ccc(N3CCOCC3)cc2)C=C1 (centres unmarked) [Example 16]
RESULT: 0.19 ΔOD/MIN
//
COMPOUND: CCC1(O)c2ccccc2-c2c1c1c(c3cc(OC)c(OC)cc23)OC(c2ccccc2)(c2ccc(N3CCOCC3)cc2)C=C1 (centres unmarked) [Example 14]
RESULT: 0.22 ΔOD/MIN
//
COMPOUND: CCC1(O)c2ccccc2-c2c1c1c(c3cc(OC)c(OC)cc23)OC(c2ccc(OC)cc2)(c2ccc(OC)cc2)C=C1 (centres unmarked) [Example 5]
RESULT: 0.19 ΔOD/MIN
//
COMPOUND: CCC1(O)c2cc(OC)c(OC)cc2-c2c1c1c(c3cc(OC)c(OC)cc23)OC(c2ccc(OC)cc2)(c2ccc(N3CCOCC3)cc2)C=C1 (centres unmarked) [Example 12]
RESULT: 0.27 ΔOD/MIN
//
COMPOUND: CCCCC1(O)c2ccccc2-c2c1c1c(c3cc(OC)c(OC)cc23)OC(c2ccc(OC)cc2)(c2ccc(OC)cc2)C=C1 (centres unmarked) [Example 15]
RESULT: 0.18 ΔOD/MIN
